molecular target: dsRBD3 F109A (Homo sapiens, UniProt O95793-2 102-181, F109A); test: fluorescence anisotropy
Sequence (O95793 183-262 F190A): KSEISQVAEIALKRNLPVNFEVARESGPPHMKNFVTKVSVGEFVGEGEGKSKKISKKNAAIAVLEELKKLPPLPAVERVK

| BINDER | UNIT_ANNOTATION | Kd |
| --- | --- | --- |
| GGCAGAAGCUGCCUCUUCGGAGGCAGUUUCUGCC (structured_RNA) [top 2/3 ARF1 SBS (sARF1 SBS)] | nM | 98.2 |

Data provenance: paper PMC7038937
